Reference source for all entries: paper PMC11446282

B1: IER2 (found with purified B55 variants) [human] / B55α WT (immunopurified, Fig. 2) [not stated] (parent complex)
chain 1: MEVQKEAQRIMTLSVWKMYHSRMQRGGLRLHRSLQLSLVMRSARELYLSAKVEALEPEVSLPAALPSDPRLHPPREAESTAETATPDGEHPFPEPMDTQEAPTAEETSACCAPRPAKVSRKRRSSSLSDGGDAGLVPSKKARLEEKEEEEGASSEVADRLQPPPAQAEGAFPNLARVLQRRFSGLLNCSPAAPPTAPPACEAKPACRPADSMLNVLVRAVVAF
chain 2: MAGAGGGNDIQWCFSQVKGAVDDDVAEADIISTVEFNHSGELLATGDKGGRVVIFQQEQENKIQSHSRGEYNVYSTFQSHEPEFDYLKSLEIEEKINKIRWLPQKNAAQFLLSTNDKTIKLWKISERDKRPEGYNLKEEDGRYRDPTTVTTLRVPVFRPMDLMVEASPRRIFANAHTYHINSISINSDYETYLSADDLRINLWHLEITDRSFNIVDIKPANMEELTEVITAAEFHPNSCNTFVYSSSKGTIRLCDMRASALCDRHSKLFEEPEDPSNRSFFSEIISSISDVKFSHSGRYMMTRDYLSVKIWDLNMENRPVETYQVHEYLRSKLCSLYENDCIFDKFECCWNGSDSVVMTGSYNNFFRMFDRNTKRDITLEASRENNKPRTVLKPRKVCASGKRKKDEISVDSLDFNKKILHTAWHPKENIIAVATTNNLYIFQDKVN

# Variants of: B1
# test-name: immunopurification of YFP-B55α variants (IP: YFP), Western blot quantification; read off a plot
Exercise: state measured percent of parent for each of the variants provided.

Q: Look up percent of parent for this variant: chain 2 I284A
Result: ~65%

Q: Continue with chain 2 D197A
Result: ~7%

Q: Continue with chain 2 D340A
Result: ~2%

Q: Continue with chain 2 Y178A
Result: ~55%

Q: Continue with chain 2 H179A
Result: ~140%

Q: Continue with chain 2 S287A
Result: ~67%

Q: Continue with chain 2 V228A
Result: ~70%

Q: Continue with chain 2 F343A
Result: ~30%
